// provenance: paper PMC8979682

- System: α-amylase
- assay-notes: in vitro α-amylase inhibition
- Assay type: biochemical
- setup-conditions: 31.25 µg/ml
endpoint-label: % inhibitions (α-amylase)

In the examples that follow, each entry is paired with its recorded % inhibitions (α-amylase).
O=C1CCCCC1C1CC(=O)N(c2ccccc2)C1=O (stereo not shown)    57.40 ± 0.40^∗∗∗ %
O=C1CCCCC1C1CC(=O)N(c2ccc(Br)cc2)C1=O (stereo not shown)    54.67 ± 0.35^∗∗∗ %
O=C1CCCCC1C1CC(=O)N(Cc2ccccc2)C1=O (stereo not shown)    55.85 ± 0.17^∗∗∗ %

Note: attention shifts to another entry.
Measured % inhibitions (α-amylase), C[C@H]1O[C@H](O[C@H]2[C@H](O)[C@@H](O)[C@@H](O[C@H]3[C@H](O)[C@@H](O)C(O)O[C@@H]3CO)O[C@@H]2CO)[C@H](O)[C@@H](O)[C@@H]1N[C@H]1C=C(CO)[C@@H](O)[C@H](O)[C@H]1O (stereo partly shown) [Acarbose, reference compound] : 63.62 ± 0.58%

###

- assay-notes: DPPH scavenging activity
- Format: biochemical
- setup-conditions: 250 µg/ml
endpoint-label: (%) DPPH inhibitions

# example entries with known answers
O=C1CCCCC1C1CC(=O)N(c2ccccc2)C1=O (stereo not shown) [BW1]    77.23 ± 0.96^∗∗∗ %
O=C1CCCCC1C1CC(=O)N(c2ccc(Br)cc2)C1=O (stereo not shown) [BW3]    76.90 ± 0.48^∗ %
O=C1O[C@H]([C@@H](O)CO)C(O)=C1O [Ascorbic acid, reference compound]    84.56 ± 0.45%

Okay, next one:
# (%) DPPH inhibitions of O=C1CCCCC1C1CC(=O)N(Cc2ccccc2)C1=O (stereo not shown) [BW2] = 71.67 ± 1.20^∗∗∗ %

###

- System: α-glucosidase
- assay-notes: in vitro α-glucosidase inhibition
- Assay type: biochemical
- setup-conditions: 31.25 µg/ml
endpoint-label: % inhibitions (α-glucosidase)

O=C1CCCCC1C1CC(=O)N(Cc2ccccc2)C1=O (stereo not shown)    62.44 ± 0.55^∗∗ %

For each of the compounds below, note its % inhibitions (α-glucosidase).
1. O=C1CCCCC1C1CC(=O)N(c2ccccc2)C1=O (stereo not shown)
2. C[C@H]1O[C@H](O[C@H]2[C@H](O)[C@@H](O)[C@@H](O[C@H]3[C@H](O)[C@@H](O)C(O)O[C@@H]3CO)O[C@@H]2CO)[C@H](O)[C@@H](O)[C@@H]1N[C@H]1C=C(CO)[C@@H](O)[C@H](O)[C@H]1O (stereo partly shown) [Acarbose, reference compound]
3. O=C1CCCCC1C1CC(=O)N(c2ccc(Br)cc2)C1=O (stereo not shown)

["65.80 ± 0.90^ns %", "67.90 ± 0.45%", "57.47 ± 0.56^∗∗∗ %"]

###

- System: α-amylase
- assay-notes: in vitro α-amylase inhibition
- Type: biochemical
- setup-conditions: 125 µg/ml
Give measured % inhibitions (α-amylase) for each item. Keep answers brief.

Examples with their reported % inhibitions (α-amylase) follow.
O=C1CCCCC1C1CC(=O)N(Cc2ccccc2)C1=O (stereo not shown)    67.44 ± 0.15^∗∗∗ %
O=C1CCCCC1C1CC(=O)N(c2ccccc2)C1=O (stereo not shown)    71.78 ± 0.44^∗∗∗ %
O=C1CCCCC1C1CC(=O)N(c2ccc(Br)cc2)C1=O (stereo not shown)    67.62 ± 0.03^∗∗∗ %

Consider the record given below.
response.value for C[C@H]1O[C@H](O[C@H]2[C@H](O)[C@@H](O)[C@@H](O[C@H]3[C@H](O)[C@@H](O)C(O)O[C@@H]3CO)O[C@@H]2CO)[C@H](O)[C@@H](O)[C@@H]1N[C@H]1C=C(CO)[C@@H](O)[C@H](O)[C@H]1O (stereo partly shown) [Acarbose, reference compound] (field: % inhibitions (α-amylase)) = 76.20 ± 0.49%

###

Give measured % inhibitions (α-glucosidase) for each item. Keep answers brief.
- Test system: α-glucosidase
- assay-notes: in vitro α-glucosidase inhibition
- Assay type: biochemical
- setup-conditions: 62.50 µg/ml

O=C1CCCCC1C1CC(=O)N(Cc2ccccc2)C1=O (stereo not shown) [BW2]    68.47 ± 0.52^∗∗∗ %
O=C1CCCCC1C1CC(=O)N(c2ccccc2)C1=O (stereo not shown) [BW1]    70.40 ± 0.20^ns %
O=C1CCCCC1C1CC(=O)N(c2ccc(Br)cc2)C1=O (stereo not shown) [BW3]    63.28 ± 0.57^∗∗∗ %

Entry under test: C[C@H]1O[C@H](O[C@H]2[C@H](O)[C@@H](O)[C@@H](O[C@H]3[C@H](O)[C@@H](O)C(O)O[C@@H]3CO)O[C@@H]2CO)[C@H](O)[C@@H](O)[C@@H]1N[C@H]1C=C(CO)[C@@H](O)[C@H](O)[C@H]1O (stereo partly shown) [Acarbose, reference compound] . Its % inhibitions (α-glucosidase) was 73.00 ± 0.30%

###

Provide the reported OGTT blood glucose, 0 minutes of each item.
- Test system: mice
- assay-notes: oral glucose tolerance test (OGTT)
- Format: in vivo
- setup-conditions: glucose 2 g/kg orally, 0 minutes
Answers are plain numbers, in mg/dL.

The following molecules have reported results that may help.
O=C1CCCCC1C1CC(=O)N(c2ccc(Br)cc2)C1=O (stereo not shown)    156.2
O=C1CCCCC1C1CC(=O)N(c2ccccc2)C1=O (stereo not shown)    165.8
COc1ccc(Cl)cc1C(=O)NCCc1ccc(S(=O)(=O)NC(=O)NC2CCCCC2)cc1 [Glibenclamide, reference compound]    151.5

Could you now consider this next molecule?
Quick note, OGTT blood glucose, 0 minutes for O=C1CCCCC1C1CC(=O)N(Cc2ccccc2)C1=O (stereo not shown) landed at 163.7

###

- System: mice
- assay-notes: oral glucose tolerance test (OGTT)
- Assay type: in vivo
- setup-conditions: glucose 2 g/kg orally, 120 minutes
endpoint-label: OGTT blood glucose, 120 minutes (mg/dL)
Numbers only, in mg/dL.

O=C1CCCCC1C1CC(=O)N(c2ccccc2)C1=O (stereo not shown) [BW1]    160.3

// each compound listed below needs its OGTT blood glucose, 120 minutes
1. O=C1CCCCC1C1CC(=O)N(Cc2ccccc2)C1=O (stereo not shown) [BW2]
2. COc1ccc(Cl)cc1C(=O)NCCc1ccc(S(=O)(=O)NC(=O)NC2CCCCC2)cc1 [Glibenclamide, reference compound]
3. O=C1CCCCC1C1CC(=O)N(c2ccc(Br)cc2)C1=O (stereo not shown) [BW3]

1: 151.4; 2: 140.5; 3: 145.4

###

- assay-notes: ABTS scavenging activity
- Type: biochemical
- setup-conditions: 250 µg/ml
endpoint-label: (%) ABTS inhibitions

# annotated cases, reported (%) ABTS inhibitions shown
O=C1CCCCC1C1CC(=O)N(c2ccc(Br)cc2)C1=O (stereo not shown)    64.90 ± 0.45^∗∗∗ %
O=C1O[C@H]([C@@H](O)CO)C(O)=C1O [Ascorbic acid, reference compound]    82.40 ± 0.20%
O=C1CCCCC1C1CC(=O)N(Cc2ccccc2)C1=O (stereo not shown)    71.08 ± 0.47^∗∗∗ %

Consider the record given below.
In plain terms, O=C1CCCCC1C1CC(=O)N(c2ccccc2)C1=O (stereo not shown) has a documented (%) ABTS inhibitions of 73.36 ± 0.84^∗∗∗ %

###

- System: α-glucosidase
- assay-notes: in vitro α-glucosidase inhibition
- Assay type: biochemical
- setup-conditions: 500 µg/ml
I'd appreciate it if you could supply % inhibitions (α-glucosidase) values for the items below.

O=C1CCCCC1C1CC(=O)N(c2ccc(Br)cc2)C1=O (stereo not shown)    77.85 ± 2.24^∗∗∗ %
O=C1CCCCC1C1CC(=O)N(Cc2ccccc2)C1=O (stereo not shown)    87.36 ± 0.49^∗ %
O=C1CCCCC1C1CC(=O)N(c2ccccc2)C1=O (stereo not shown)    89.08 ± 1.04^ns %

Consider the additional compound presented here.
# % inhibitions (α-glucosidase) measured on α-glucosidase for item C[C@H]1O[C@H](O[C@H]2[C@H](O)[C@@H](O)[C@@H](O[C@H]3[C@H](O)[C@@H](O)C(O)O[C@@H]3CO)O[C@@H]2CO)[C@H](O)[C@@H](O)[C@@H]1N[C@H]1C=C(CO)[C@@H](O)[C@H](O)[C@H]1O (stereo partly shown) [Acarbose, reference compound] = 92.23 ± 0.22%

###

I'd appreciate it if you could supply % inhibitions (α-amylase) values for the items below.
- Tested on: α-amylase
- assay-notes: in vitro α-amylase inhibition
- Type: biochemical
- setup-conditions: 62.50 µg/ml

For orientation, consider the following solved cases.
O=C1CCCCC1C1CC(=O)N(c2ccccc2)C1=O (stereo not shown)    65.08 ± 0.66^∗∗∗ %
C[C@H]1O[C@H](O[C@H]2[C@H](O)[C@@H](O)[C@@H](O[C@H]3[C@H](O)[C@@H](O)C(O)O[C@@H]3CO)O[C@@H]2CO)[C@H](O)[C@@H](O)[C@@H]1N[C@H]1C=C(CO)[C@@H](O)[C@H](O)[C@H]1O (stereo partly shown) [Acarbose, reference compound]    69.42 ± 1.55%
O=C1CCCCC1C1CC(=O)N(Cc2ccccc2)C1=O (stereo not shown)    63.72 ± 0.11^∗∗∗ %

So, O=C1CCCCC1C1CC(=O)N(c2ccc(Br)cc2)C1=O (stereo not shown) ? Its % inhibitions (α-amylase) was 62.16 ± 0.12^∗∗∗ %
